# Tested on: Vero E6
# assay protocol: drug sensitivity score (DSS) for viability; higher = more toxic; extreme values may be limits of the assay
# cond: 72 h
readout: drug sensitivity score
Response field accepts a number only; no unit should be typed.

O=C(O[C@H]1[C@H](OC(=O)c2cccnc2)[C@@H](OC(=O)c2cccnc2)[C@H](OC(=O)c2cccnc2)[C@@H](OC(=O)c2cccnc2)[C@H]1OC(=O)c1cccnc1)c1cccnc1 [inositol-hexanicotinate] has a reported drug sensitivity score of 0

response.value for `CC1(C)C(/C=C/C=C/C=C/C=C2\N(CCCCS(=O)(=O)O)c3ccc4ccccc4c3C2(C)C)=[N+](CCCCS(=O)(=O)[O-])c2ccc3ccccc3c21` (field: drug sensitivity score) = 0

Form field drug sensitivity score, entry CCCCN1CCCCC1C(=O)Nc1c(C)cccc1C (stereo not given) : 0

Sure, the documented drug sensitivity score for `COc1ccc(-c2coc3cc(O)cc(O)c3c2=O)cc1` is 0

Value of measured drug sensitivity score for the entry `O=C(NC1CCC1)c1ccc(C#Cc2cccc(F)c2)nc1` : 0

---

Kindly supply the reported drug sensitivity score values for the records listed here.
# Test system: Caco-2
# assay protocol: drug sensitivity score (DSS) for viability; higher = more toxic; extreme values may be limits of the assay
# cond: 72 h

// sample CCCn1c(=O)c2nc(C34CC5CC(CC3C5)C4)[nH]c2n(CCC)c1=O [KW-3902] , its drug sensitivity score was 0.9

Record summary for C[C@@H]1CC[C@H]2[C@@H](C)C(=O)O[C@@H]3O[C@@]4(C)CC[C@@H]1[C@]32OO4 [artemisinin] : reported drug sensitivity score = 1.3

// field: drug sensitivity score; key: NCCCCCC(O)(P(=O)(O)O)P(=O)(O)O [neridronic-acid] ; value = 0.6

Item: CCC1=C[C@@H]2CN3CCc4c([nH]c5ccccc45)[C@@](C(=O)OC)(C2)[C@@H]13 [catharanthine] | drug sensitivity score: 0

---

# Tested on: Caco-2
# assay protocol: drug sensitivity score (DSS) for viability; higher = more toxic; extreme values may be limits of the assay
# cond: 72 h
readout: drug sensitivity score
Keep it simple and answer with nothing but the number.

Kindly note: Caco-2, `COc1cc(COc2cc(N)c(Cl)cc2C(=O)CCC2CCN(CCNS(C)(=O)=O)CC2)cc(OC)c1` , drug sensitivity score value reported: 0

// returns drug sensitivity score for `CN(N=O)C(=O)N[C@@H](C=O)[C@@H](O)[C@H](O)[C@H](O)CO` with Caco-2; value = 1

// returns drug sensitivity score for O=S(=O)(c1cccc2c(O)nccc12)N1CCCNCC1 [hydroxyfasudil] with Caco-2; value = 0

Reading of drug sensitivity score for `C=C[C@@H]1C[C@]1(NC(=O)[C@@H]1C[C@@H](Oc2ncc(OC)c3ccc(Cl)cc23)CN1C(=O)[C@@H](NC(=O)OC(C)(C)C)C(C)(C)C)C(=O)NS(=O)(=O)C1CC1` with Caco-2: 0.1

Measured drug sensitivity score (Caco-2), entry `COc1cc2c(Nc3ccc(Cl)c(Cl)c3F)ncnc2cc1OC[C@@H]1C[C@@H]2CN(C)C[C@@H]2C1` : 8.4

Fill in: Caco-2 drug sensitivity score for O=C1c2ccc(Nc3ccc(F)cc3F)cc2CCc2ccc(OC[C@H](O)CO)cc21 [skepinone-L] = 2.5

# lookup: Cc1ccccc1N(C)C(=O)c1ccc([S+]([O-])c2nccs2)c([N+](=O)[O-])c1 (stereo not drawn) on Caco-2, drug sensitivity score = 8.4

# value of drug sensitivity score, Caco-2, item `CCN1CCN(c2ccc(Nc3cc(N(C)C(=O)Nc4c(Cl)c(OC)cc(OC)c4Cl)ncn3)cc2)CC1` = 1.5

---

# System: HepG2
# assay protocol: cell viability relative to DMSO; higher = less toxic
# cond: 72 h; 100 nM
Would you kindly list cell viability for each of these compounds?

Value of measured cell viability for the entry Oc1ccc(CC2NCCc3cc(O)c(O)cc32)cc1 (stereo not given) : 99.3%

Recorded cell viability (compound `Cc1ccc(Oc2ccccc2-c2csc(N=C3NCCCN3)n2)c(C)c1` ): 104%

For reference, reported cell viability for `Cc1cc(C(=O)N2Cc3cnn(C)c3Nc3ccccc32)ccc1CNC(=O)N1CCC[C@H]1C(=S)N1CCCN(C)CC1` stands at 97%

Item: `O=C(Nc1c[nH]nc1-c1nc2ccc(CN3CCOCC3)cc2[nH]1)NC1CC1` | cell viability: 82.4%

cell viability in this record for NS(=O)(=O)c1cc2c(cc1Cl)N=CNS2(=O)=O [chlorothiazide] : 95.9%

---

# Tested on: Vero E6
# assay protocol: cell viability relative to DMSO; higher = less toxic
# cond: 72 h; 10000 nM
readout: cell viability (%)
Dear colleague, please return just the value in %, with no unit written.

The measured cell viability associated with `C=C(C)[C@@H]1CC=C(CO)CC1` reads 96

Looking up Cc1cc(S(=O)(=O)O)c2c(C)ccc(C(C)C)cc1-2 [sodium-gualenate] , I found its cell viability recorded as 92.8

According to the records, this molecule Cn1c(=O)c2c(ncn2CC(O)CO)n(C)c1=O (stereo not drawn) displays cell viability of 105

Item: `O=C(Oc1ccc(Br)cc1)N1CCN2CCC1CC2` | cell viability: 104

Recorded cell viability (molecule `CC1(C)C(/C=C/C=C/C=C/C=C2\N(CCCCS(=O)(=O)O)c3ccc4ccccc4c3C2(C)C)=[N+](CCCCS(=O)(=O)[O-])c2ccc3ccccc3c21` ): 94.1

// cell viability value for `CCC1=C[C@@H]2CN(C1)Cc1c([nH]c3ccccc13)[C@@](C(=O)OC)(c1cc3c(cc1OC)N(C)[C@H]1[C@@](O)(C(=O)OC)[C@H](OC(C)=O)[C@]4(CC)C=CCN5CC[C@]31[C@@H]54)C2` : 31.2

Just so you know, measured cell viability for `CNC(=O)[C@H](Cc1ccccc1)NC(=O)[C@H](CC(C)C)[C@H](CSc1cccs1)C(=O)NO` came out at 83.8

The molecule listed as `C[C@]12CCC(=O)C=C1CC[C@@H]1[C@@H]2CC[C@@]2(C)[C@H]1CC[C@]2(C)O` shows cell viability equal to 105

---

# Tested on: Vero E6
# assay protocol: cell viability relative to DMSO; higher = less toxic
# cond: 72 h; 1000 nM
readout: cell viability (%)
# number only, unit % dropped from output

Looking up `CCO[C@@H](Cc1ccc(OCCc2ccc(OS(C)(=O)=O)cc2)cc1)C(=O)O` , I see its cell viability listed as 81.9

cell viability in this record for `CC(C)C[C@@H](NC(=O)[C@H](C)NC(=O)CNC(=O)[C@@H](NC=O)C(C)C)C(=O)N[C@@H](C)C(=O)N[C@@H](C(=O)N[C@H](C(=O)N[C@@H](C(=O)N[C@@H](Cc1c[nH]c2ccccc12)C(=O)N[C@H](CC(C)C)C(=O)N[C@@H](Cc1c[nH]c2ccccc12)C(=O)N[C@H](CC(C)C)C(=O)N[C@@H](Cc1c[nH]c2ccccc12)C(=O)N[C@H](CC(C)C)C(=O)N[C@@H](Cc1c[nH]c2ccccc12)C(=O)NCCO)C(C)C)C(C)C)C(C)C` : 92.5

The reported cell viability of the compound `CCCn1c(=O)c2[nH]c(C3CCCC3)nc2n(CCC)c1=O` was 99.8

The compound listed as `CC(C)OC(=O)C1=CN(C(=O)c2ccc(F)c(F)c2)CC(C)(C)c2c1[nH]c1ccccc21` shows cell viability equal to 98.7

The reported cell viability of the compound CN(CCOP(=O)(O)O)C(=N)N [creatinol-phosphate] was 104

The value of cell viability measured for the compound `C=C(C)[C@@H]1CC=C(CO)CC1` turned out to be 95.5

Data point: `COc1cc(Nc2ncc(F)c(Nc3ccc4c(n3)NC(=O)C(C)(C)O4)n2)cc(OC)c1OC` ; cell viability = 91

---

I'd appreciate it if you could supply cell viability values for the items below.
# Tested on: Calu-3
# assay protocol: cell viability relative to DMSO; higher = less toxic
# cond: 72 h; 1 nM
Note: unit % is implicit; provide only the numeric part.

Entry under test: CC(=O)Nc1c(I)cc(I)c(C(=O)O)c1I [acetriazoic-acid] . Its cell viability was 98.6

N#Cc1cc(F)cc(-c2nc(-c3ccc(F)cn3)no2)c1 [AZD9272] has a reported cell viability of 109

Input `O=C(Oc1ccc(Br)cc1)N1CCN2CCC1CC2` . Output cell viability: 97.5

Entry Cc1c(F)cccc1NC(=O)Nc1ccc(Cl)c(S(=O)(=O)[C@H]2CCCNC2)c1O [danirixin] , cell viability reported as 84.6

---

# Tested on: Vero E6
# assay protocol: cell viability relative to DMSO; higher = less toxic
# cond: 72 h; 10000 nM
Structures can show the parent of a compound that is named as a salt.
Assign cell viability to each entry below.
Report the value in % with no unit label.

Note to self: cell viability recorded for CC(C)OC(=O)N1CCC(Oc2ncnc3c2cnn3-c2ccc(S(C)(=O)=O)cc2F)CC1 [APD668] was 105

Recorded result, CO/N=C(\C(=O)N[C@@H]1C(=O)N2C(C(=O)O)=C(CSC(=O)c3ccco3)CS[C@H]12)c1csc(N)n1 [CEFTIOFUR HYDROCHLORIDE] , cell viability: 106

get_value(item= CC(C)c1cc(C(C)C)c(CC(=O)NS(=O)(=O)Oc2c(C(C)C)cccc2C(C)C)c(C(C)C)c1 [avasimibe] , readout=cell viability) returns 81

For C=C[C@@](C)(/C=C/c1ccc(O)cc1)CCC=C(C)C [bakuchiol] the compound record lists cell viability as 98.5

According to the records, this compound Oc1ccc(C2(c3ccccc3F)CCC(F)(F)CC2)cc1 [AC-186] displays cell viability of 109

So, Cc1ncc(-c2csc(N=C(N)N)n2)[nH]1 [zaltidine] ? Its cell viability was 107

For CO/N=C1\C[C@]2(C[C@@H]3C[C@@H](C/C=C(\C)C[C@@H](C)/C=C/C=C4\CO[C@@H]5[C@H](O)C(C)=C[C@@H](C(=O)O3)[C@]45O)O2)O[C@H](/C(C)=C/C(C)C)[C@H]1C [moxidectin] the compound record lists cell viability as 101

The compound identified as N=C(N)NCCN1CCCCCCC1 [guanethidine] registered its cell viability at 101

The compound listed as C[C@@H]1NC(C)(C)CO[C@@]1(O)c1cccc(Cl)c1 [radafaxine] shows cell viability equal to 105

In plain terms, CC(C)C[C@@H](NC(=O)[C@H](C)NC(=O)CNC(=O)[C@@H](NC=O)C(C)C)C(=O)N[C@@H](C)C(=O)N[C@@H](C(=O)N[C@H](C(=O)N[C@@H](C(=O)N[C@@H](Cc1c[nH]c2ccccc12)C(=O)N[C@H](CC(C)C)C(=O)N[C@@H](Cc1c[nH]c2ccccc12)C(=O)N[C@H](CC(C)C)C(=O)N[C@@H](Cc1c[nH]c2ccccc12)C(=O)N[C@H](CC(C)C)C(=O)N[C@@H](Cc1c[nH]c2ccccc12)C(=O)NCCO)C(C)C)C(C)C)C(C)C [gramicidin] has a documented cell viability of 98.3

Entry O=[N+]([O-])O[C@@H]1CO[C@H]2[C@@H]1OC[C@@H]2O [isosorbide-mononitrate] , cell viability reported as 94.4

So, CCC(CC)Nc1nc(C)c(-c2ccc(OC(F)(F)F)cc2OC)nc1OC [NGD-98-2] ? Its cell viability was 99.2

Measured cell viability, CCn1c(=O)[nH]c2ccccc21 [1-EBIO] : 104

Recorded cell viability (compound COC(=O)[C@@H]1CC2=CC(=O)CC[C@]2(C)[C@@]23O[C@@H]2C[C@@]2(C)[C@@H](CC[C@@]24CCC(=O)O4)[C@H]13 [eplerenone] ): 95

Entry CCn1cc(-c2cccc(C(F)(F)F)c2)c2sc(C(=N)NC3CCS(=O)(=O)CC3)cc2c1=O [I-BRD9] ; cell viability = 92.3

# cell viability of Cc1ccc(Nc2c(F)cccc2Cl)c(CC(=O)O)c1 [lumiracoxib] = 100

compound Cc1cc(C(=O)N2Cc3cnn(C)c3Nc3ccccc32)ccc1CNC(=O)N1CCC[C@H]1C(=S)N1CCCN(C)CC1 [TC-OT-39] , cell viability observed: 102

Numbers sourced from the supplement of paper PMC13380429.
